# Tested on: MCF-7/DOX cells
# measurementProtocol: Inhibition of MCF-7/DOX cell growth, microtiter methylene blue staining assay, 48 h
# Format: cell-based, human
# studyConditions: Homo sapiens, MCF7-DOX, 48 h, read-out: IC50 for cell growth inhibition
List of IC50 values.
Note: unit µM is implicit; provide only the numeric part.

CN(C)CCCN1c2ccccc2[S+]([O-])c2ccc(Cl)cc21 (stereo not drawn) [Chlorpromazine Sulfoxide]
500
COc1cccc2c1C(=O)c1c(O)c3c(c(O)c1C2=O)C[C@@](O)(C(=O)CO)C[C@@H]3O[C@H]1C[C@H](N)[C@H](O)[C@H](C)O1 [Doxorubicin]
12

IN: Output measured IC50 for this item: OCCN1CCN(CC/C=C2\c3ccccc3Sc3ccc(C(F)(F)F)cc32)CC1 [trans-Flupenthixol]
OUT: 25

====

List of pIC50 values.
# tgt: Calmodulin (Bos taurus)
Interpret pIC50 as the negative base-10 log of the concentration measured in mol/L.

O=c1[nH]c2ccccc2n1C1CCN(CCCC(c2ccc(F)cc2)c2ccc(F)cc2)CC1 [Pimozide]
5.15
CN(C)CCCN1c2ccccc2Sc2cccc(Cl)c21 [1-Chlorpromazine]
4.13
CNCCCN1c2ccccc2Sc2ccc(Cl)cc21 [Desmethylchlorpromazine]
4.35
CN(C)CCN1c2ccccc2Sc2ccc(Cl)cc21
4.22
CCN(CC)CCCN1c2ccccc2Sc2ccc(Cl)cc21 [Chlorproethazine]
4.55
OC1(c2ccc(Cl)c(C(F)(F)F)c2)CCN(CCCC(c2ccc(F)cc2)c2ccc(F)cc2)CC1 [Penfluridol]
5.52
CN(C)CCCN1c2cc(Cl)ccc2Sc2cc(O)c(O)cc21 [7,8-Dihydroxychlorpromazine]
4.09
CN(C)CCCN1c2ccccc2Sc2ccccc21 [Promazine]
3.96

We now examine a further molecule.
IN: Give pIC50 for this entry on Calmodulin (Bos taurus): CN(C)CCCN1c2ccc(O)cc2Sc2ccc(Cl)cc21 [7-Hydroxychlorpromazine]
OUT: 4.17

====

# System: MCF-7/DOX cells
# measurementProtocol: Cellular accumulation of cis and trans-flupenthixol in MCF-7/DOX cells
# Type: cell-based, human
# studyConditions: 10 μM, 3 hour incubation
endpointLabel: cell associated drug concentration at 10 μM (pmol/10^6 cells)
Note: unit pmol/10^6 cells is implicit; provide only the numeric part.

OCCN1CCN(CC/C=C2/c3ccccc3Sc3ccc(C(F)(F)F)cc32)CC1 [cis-Flupenthixol]
1420

We now examine a further molecule.
IN: Give cell associated drug concentration at 10 μM for this entry on MCF-7/DOX cells: OCCN1CCN(CC/C=C2\c3ccccc3Sc3ccc(C(F)(F)F)cc32)CC1 [trans-Flupenthixol]
OUT: 1000

====

# System: MCF-7/DOX cells
# measurementProtocol: Cellular accumulation of cis and trans-flupenthixol in MCF-7/DOX cells
# Type: cell-based, human
# studyConditions: 100 μM, 3 hour incubation
endpointLabel: cell associated drug concentration at 100 μM (pmol/10^6 cells)
Note: unit pmol/10^6 cells is implicit; provide only the numeric part.

OCCN1CCN(CC/C=C2\c3ccccc3Sc3ccc(C(F)(F)F)cc32)CC1 [trans-Flupenthixol]
6000

We now examine a further compound.
IN: Output measured cell associated drug concentration at 100 μM for this item: OCCN1CCN(CC/C=C2/c3ccccc3Sc3ccc(C(F)(F)F)cc32)CC1 [cis-Flupenthixol]
OUT: 7000

====

The next entries give measured IC50 for Calmodulin (Bos taurus).
Note: unit µM is implicit; provide only the numeric part.

# count of solved cases: 3
CN(C)CCCN1c2cc(O)ccc2Sc2cc(O)c(Cl)cc21 [3,8-Dihydroxychlorpromazine]
183
NCCCN1c2ccccc2Sc2ccc(Cl)cc21
38
CN(C)CCCN1c2ccccc2CCc2ccccc21
125

IN: Output measured IC50 for this item: CN(C)CCCCN1c2ccccc2Sc2ccc(Cl)cc21
OUT: 40

IN: Output measured IC50 for this item: CSc1ccc2c(c1)N(CCCN(C)C)c1ccccc1S2
OUT: 42

IN: Output measured IC50 for this item: CCN(CC)CCCC(C)Nc1c2ccc(Cl)cc2nc2ccc(OC)cc12 (stereo not drawn)
OUT: 42

IN: Output measured IC50 for this item: CN(C)CCCN1c2ccccc2Sc2cc(Cl)ccc21
OUT: 24

IN: Output measured IC50 for this item: CN(C)CCCN1c2ccccc2Sc2c(Cl)cccc21
OUT: 25

IN: Output measured IC50 for this item: CN(C)CCCN1c2ccccc2[S+]([O-])c2ccc(Cl)cc21 (stereo not drawn) [Chlorpromazine Sulfoxide]
OUT: 2200
